Item-by-item account of relative viability
Tested on: NCI-H2126
TEST_PROTOCOL: relative viability (nuclei count vs DMSO), 5 days (fraction); higher = more cells survive
CONDITIONS: first compound 0.1265 µM
No unit in the answer, please; the number alone is enough.

Asked: Item COc1cc(N2CCC(C(N)=O)CC2)ccc1Nc1nc(N)c(Cl)c(Nc2ccccc2S(=O)(=O)C(C)C)n1 [HG-5-88-01] + Cc1nc(NC(=O)N2CCC[C@H]2C(N)=O)sc1-c1ccnc(C(C)(C)C(F)(F)F)c1 [Alpelisib] (partner 2 µM) has what recorded relative viability?
Given back: 0.79

Asked: Request the reported relative viability associated with Clc1ccc(Nc2nnc(Cc3ccncc3)c3ccccc23)cc1 [Vatalanib] + C[C@]1(O)C[C@@H](c2nc(-c3ccc4ccc(-c5ccccc5)nc4c3)c3c(N)nccn32)C1 [Linsitinib] (partner 1 µM)
Given back: 0.72

Asked: # get_value(readout='relative viability', item= C[C@@H]1CN(CC(=O)Nc2ccc3c(c2)Cc2cccc(-c4cc(=O)cc(N5CCOCC5)o4)c2S3)C[C@H](C)O1 + COc1cc2c(Oc3ccc(NC(=O)C4(C(=O)Nc5ccc(F)cc5)CC4)cc3F)ccnc2cc1OCCCN1CCOCC1 [Foretinib] (partner 0.25 µM) )
Given back: 1.12

Asked: Would you kindly share the measured relative viability for COc1cc(N2CCC(C(N)=O)CC2)ccc1Nc1nc(N)c(Cl)c(Nc2ccccc2S(=O)(=O)C(C)C)n1 [HG-5-88-01] + COc1cccc2cc(-c3nc([C@H]4CC[C@H](C(=O)O)CC4)n4ncnc(N)c34)[nH]c12 [OSI-027] (partner 0.5 µM) ?
Given back: 0.688

Continuing:
Asked: So what does the record say about relative viability for C[C@@H]1CN(CC(=O)Nc2ccc3c(c2)Cc2cccc(-c4cc(=O)cc(N5CCOCC5)o4)c2S3)C[C@H](C)O1 + O=C(CCCCCCC(=O)Nc1ccccc1)NO [Vorinostat] (partner 1 µM) ?
Given back: 0.768

Asked: relative viability lookup needed for COc1cc(N2CCC(C(N)=O)CC2)ccc1Nc1nc(N)c(Cl)c(Nc2ccccc2S(=O)(=O)C(C)C)n1 [HG-5-88-01] + C[C@]1(O)C[C@@H](c2nc(-c3ccc4ccc(-c5ccccc5)nc4c3)c3c(N)nccn32)C1 [Linsitinib] (partner 1 µM) , thanks.
Given back: 0.76

Asked: I have this compound here, COc1cc(N2CCC(C(N)=O)CC2)ccc1Nc1nc(N)c(Cl)c(Nc2ccccc2S(=O)(=O)C(C)C)n1 [HG-5-88-01] + CCNC(=O)c1noc(-c2cc(C(C)C)c(O)cc2O)c1-c1ccc(CN2CCOCC2)cc1 [Luminespib] (partner 0.01 µM) , and I need its recorded relative viability.
Given back: 0.975

Asked: Look up relative viability: COc1cc(N2CCC(C(N)=O)CC2)ccc1Nc1nc(N)c(Cl)c(Nc2ccccc2S(=O)(=O)C(C)C)n1 [HG-5-88-01] + Cc1cc(Nc2cc(N3CCN(C)CC3)nc(Sc3ccc(NC(=O)C4CC4)cc3)n2)n[nH]1 [Tozasertib] (partner 0.1 µM)
Given back: 0.941

The origin of these recorded values is the supplement of paper PMC10307832.
